Source of measurements: ChEMBL document CHEMBL1142807

- Assay Overview: Inhibitory activity against Dipeptidyl peptidase IV
Measured Endpoint: Ki (nM)
Answer format: numeric, nM implied, no suffix.

Guide cases for Ki, answers given:
smiles_input=CC(C)(C)OC(=O)N[C@@H]1CN[C@H](C(=O)N2[C@H](C#N)C[C@@H]3C[C@@H]32)C1 measured_number=140
smiles_input=CC(C)(C)CC(=O)N[C@@H]1CN[C@H](C(=O)N2[C@H](C#N)C[C@@H]3C[C@@H]32)C1 measured_number=133

Problem: Using the record for C[C@H]1CCN[C@@H]1C(=O)N1[C@H](C#N)C[C@@H]2C[C@@H]21 , report its Ki.
Result: 126
